test system: MS2 coat protein; test: apparent KD of MS2 coat protein; higher = weaker reporter binding; conditions: Eterna round: R101; input ligand: FMN 200 uM
measurementLabel: apparent KD of MS2 coat protein (µM)

[
  {
    "sequenceChain": "CGUAGUCCGUAGAAGGGUGACAUGAGGAUCACCCAUGUGCGAGCGGAGGGAGUCAGCGGCUCGCCACAGGAUAUACGGAGCACG [Eniszabe] (puzzle (switch architecture): Inverted Same State NG 2)",
    "observedMeasurement": 0.0288
  },
  {
    "sequenceChain": "UAAUAUAUAUAGAAGGACAUGAGGAUCACCCAUGUCGCCGGGCCCGGGAAACCGGGCCCGGCCAUGUAGGAUAUAUAUAUAUUA [#This is a good prank 10] (puzzle (switch architecture): Inverted Exclusion NG 2)",
    "observedMeasurement": 0.00517
  },
  {
    "sequenceChain": "GACUGCAGGAUAACAACCUGCAGUCACUUCUGAGGAUCACCCAGAAGGGCUGAGGUAAUACCUCAGCAGGAUAUGGAGUGUAAA [#SharedSequence IExNG# - 8] (puzzle (switch architecture): Inverted Exclusion NG 3)",
    "observedMeasurement": 0.0701
  },
  {
    "sequenceChain": "GUCACGGUUAAUUCCGUGACGCGCAAUCCUUGAGGAUCACCCAAGGAUAUCGACGUCAAUGACGUCGAGAAGGUGGUUGAGCGC [#SharedSequence2] (puzzle (switch architecture): Exclusion NG 3)",
    "observedMeasurement": 0.0235
  },
  {
    "sequenceChain": "AAAUAACUUGAAGGAUAUCAGGGUGCACCUCAGUAAAACUGAGGUGCACCCUGAGAAGGUCGAGGAUCACCCGACCUAGUGAAA [#SharedSequence SLExNG1: 7-2] (puzzle (switch architecture): Small Loop Exclusion NG 1)",
    "observedMeasurement": 0.00719
  },
  {
    "sequenceChain": "GGAGAUACAUGAGGAUCACCCAUGUAGGAUAUAUAGUAUAUAUAUAUUGAAAGGUAUAUAUAUAUAUAGAAGGGCGUGCACACC [#LOL-18] (puzzle (switch architecture): Small Loop Exclusion NG 3)",
    "observedMeasurement": 0.00673
  },
  {
    "sequenceChain": "AAAUAACUUGAAGGAUAUCAGGGUGCACCUCAGUAAAACUGAGGUGCACCCUGAGAAGGUCGAGGAUCACCCGACCUAAAUAAA [#SharedSequence SLExNG1: 6-2] (puzzle (switch architecture): Small Loop Exclusion NG 1)",
    "observedMeasurement": 0.00727
  },
  {
    "sequenceChain": "GUCAGCUCGUGAGGAUAUACAACACUGCUUCGGCAGUGUAUUAAGAUCACAUGAGGAUCACCCAUGUAGAAGGCACGAGCUGAU (puzzle (switch architecture): Exclusion NG 2)",
    "observedMeasurement": 0.24
  },
  {
    "sequenceChain": "UUACUCAUGUAAGGAUAUGCAGCCGAAACGGCUGCAGAAGGUACUAUAAUACAUGAGGAUCACCCAUGUAAAAUAUAUAAAGUU (puzzle (switch architecture): Same State NG 1)",
    "observedMeasurement": 0.0183
  },
  {
    "sequenceChain": "GGUGCACGCACAGGAUAUCCGGCGAAGCUCGUCGGAGAAGGGUGACAUGAGGAUCACCCAUGUACGUGCAGCCAAGUUUGAGAG [Laaar] (puzzle (switch architecture): Same State NG 1)",
    "observedMeasurement": 0.0476
  },
  {
    "sequenceChain": "UUGGACGUCGUAGGAUAUGUAGGAUAUUCCUACAUGAGGAUCACCCAUGUUGACAUGGAAGAAGGACAGAAGGACGAUGUCCAU (puzzle (switch architecture): Same State NG 2)",
    "observedMeasurement": 0.00456
  },
  {
    "sequenceChain": "AGACCUGCUCAGAAGGAGAGUGCGAGGCUGGAAACAGCCUCGAACUAGAAACCUAGAGGAUCACCCUAGGAUAUGAGCAGGUCA [#SharedSequence - IExNG2: 10] (puzzle (switch architecture): Inverted Exclusion NG 2)",
    "observedMeasurement": 0.00558
  },
  {
    "sequenceChain": "UAAAUAGAUCCUAGAGGAUCACCCUAGGAUAUCACCGUCGAGGUGCCAUAAUGGCACCUCGACGGUGAGAAGGAGGAAAAUAAA [#SharedSequence - SLExNG3: 5] (puzzle (switch architecture): Small Loop Exclusion NG 3)",
    "observedMeasurement": 0.0218
  },
  {
    "sequenceChain": "AGGAGAAAUGUAGGAUAUGGGCGGGCGGACGGGCAAAGCGCGUCCGCCCGCCCAGAAGGACAUGAGGAUCACCCAUGUUUCCCU [Wow, my 5th design!] (puzzle (switch architecture): Small Loop Exclusion NG 1)",
    "observedMeasurement": 0.013
  },
  {
    "sequenceChain": "CGGGAUAUGAAGGGCGAAAGCCCACAUGAGGAUCACCCAUGUAGAAGGCGGGCCGCAACGCGGCCCGAGGAUAUACAAUAUCCA [#my 7th design] (puzzle (switch architecture): Inverted Exclusion NG 3)",
    "observedMeasurement": 0.0131
  },
  {
    "sequenceChain": "GGAGAUACAUGAGGAUCACCCAUGUAGGAUAUCGGGCCCGGGCCCGGCGAAAGCCGGGCCCGGGCCGAGAAGGGCGUACACACC [#LOL-2] (puzzle (switch architecture): Small Loop Exclusion NG 3)",
    "observedMeasurement": 0.00579
  },
  {
    "sequenceChain": "ACACGUCGUGAGAAGGAGGAUCACCCUUUCGAAAGAAAGAGCCACCGUGAAAACGGUGGCAAAUUCUAGGAUAUCACGACGUGA [#SharedSequence - IExNG2: 2] (puzzle (switch architecture): Inverted Exclusion NG 2)",
    "observedMeasurement": 0.363
  }
]

----------
system: MS2 coat protein; test: apparent KD of MS2 coat protein; designed switch direction (-1 OFF switch, 1 ON switch): 1; higher = weaker reporter binding; details: input ligand: FMN 200 uM
Each entry below carries its reported apparent KD of MS2 coat protein.
measurementLabel: apparent KD of MS2 coat protein

[
  {
    "sequenceChain": "AAACAUGAGCGAGGAUAUGCGGAGGAUUACCCUGUAGAAGGCGCAUGUAAAACAACAUGAGGAUCACCCAUGUCAUGUACAUGU (Eterna round: R96, puzzle: Same State NG 1)",
    "measurementLabel": "apparent KD of MS2 coat protein",
    "observedMeasurement": "168 nM"
  },
  {
    "sequenceChain": "CGGUGAGAGACAGGAUAUCGAGCCUAACGAGGCCGAGAAGGGUCGCCCGAAGCGACCGACAUGAGGAUCACCCAUGUAGAAAGA [Eternabot solution 21] (Eterna round: R96, puzzle: Same State NG 1)",
    "measurementLabel": "apparent KD of MS2 coat protein",
    "observedMeasurement": "34.2 nM"
  },
  {
    "sequenceChain": "CGUUGGACAUCCAGCAAGACAUGAGGAUCACCCAUGUAGGCGCAGGAUAUGCGGGUUCGGUGCUCGCAGAAGGGUGAAGAAAAC [Araerar] (Eterna round: R96, puzzle: Same State NG 3)",
    "measurementLabel": "apparent KD of MS2 coat protein",
    "observedMeasurement": "35.5 nM"
  },
  {
    "sequenceChain": "UAUUUAAUCGUAGGAUAUAGAAUGAAAUUUGUACUAGAAGGACGUUACAUGAGGAUCACCCAUGUGGUAAGUGGGACAUAGUUU [JR_SSNG1_Sub036] (Eterna round: R96, puzzle: Same State NG 1)",
    "measurementLabel": "apparent KD of MS2 coat protein",
    "observedMeasurement": "141 nM"
  },
  {
    "sequenceChain": "UUAAUAAUGUUAGGAUAUACAUGAGGAAUCCUCGUAGAAGGAACAUGACAUGAGGAUCACCCAUGUAGCGCUCCGUAGAGCGCA [Mat - Same State NG 1 - JL mod - D45] (Eterna round: R96, puzzle: Same State NG 1)",
    "measurementLabel": "apparent KD of MS2 coat protein",
    "observedMeasurement": "1600 nM"
  },
  {
    "sequenceChain": "GCGGACCUCACAUGAGGAUCACCCAUGUUGCGGAGACGCAAUGAGGAUAUCGAUGGGUUUCCCGUCGAGAAGGCAUAAAUCCGC [JL SSNG3 3.93 mod 4] (Eterna round: R96, puzzle: Same State NG 3)",
    "measurementLabel": "apparent KD of MS2 coat protein",
    "observedMeasurement": "109 nM"
  },
  {
    "sequenceChain": "AUUGGGUAACGAGGAUAUCGUAUUUGUUUGUUUCGAGAAGGCGUUAUAGUUUCUUUCUAUUGUUACAUGAGGAUCACCCAUGUU [JR_SSNG1_Sub052] (Eterna round: R96, puzzle: Same State NG 1)",
    "measurementLabel": "apparent KD of MS2 coat protein",
    "observedMeasurement": "19.1 nM"
  },
  {
    "sequenceChain": "AUUGCUUACGCAGGAUAUGAUGCGAAAAUUGCGUCAGAAGGGUGAAGUGACUCGUAGCAACAAGACAUGAGGAUCACCCAUGUC [SameState NG1 #93] (Eterna round: R96, puzzle: Same State NG 1)",
    "measurementLabel": "apparent KD of MS2 coat protein",
    "observedMeasurement": "28.2 nM"
  },
  {
    "sequenceChain": "UAUCCAUAGAUAGGAUAUCAGUAUACAUGAGGAUCACCCAUGUUAUACUUGGUUUUAAGUUAGUCUGAGAAGGAUCUUGAUGAA [SameState NG2 #4] (Eterna round: R96, puzzle: Same State NG 2)",
    "measurementLabel": "apparent KD of MS2 coat protein",
    "observedMeasurement": "12.6 nM"
  },
  {
    "sequenceChain": "GGAGCCGGCCUAGGAUAUUUCAUUAAAUAACAUGAGGAUCACCCAUGUAGGCCAGAAGGCCUUGGGAAGAAGGAGGUCGGCUCC [Loop Effect - U24,U28] (Eterna round: R96, puzzle: Same State NG 2)",
    "measurementLabel": "apparent KD of MS2 coat protein",
    "observedMeasurement": "12.2 nM"
  },
  {
    "sequenceChain": "GAGUAGUUGAAAGGAUAUGGAUUAUUGUAGGAUCCAGAAGGUUUUAACAUGAGGAUCACCCAUGUAGGACUAUAUAUGUGAAUA [Parity 96 - Jieux - Same State NG 1] (Eterna round: R96, puzzle: Same State NG 1)",
    "measurementLabel": "apparent KD of MS2 coat protein",
    "observedMeasurement": "15.3 nM"
  },
  {
    "sequenceChain": "AUAAAACAUGAGGAUCACCCAUGUCAACAAAGUCGAGGAUAUGGGCAAAUAAAAUAAGAACCAGAAGGCGAAUAAU [Teenbexe] (Eterna round: R96, puzzle: Same State 1)",
    "measurementLabel": "apparent KD of MS2 coat protein",
    "observedMeasurement": "42.1 nM"
  },
  {
    "sequenceChain": "AUUGCUAGCACAGGAUAUCAUGCGAAAAUUGCGUGAGAAGGGUGGACACUGUCAUUCACGGAGGACAUGAGGAUCACCCAUGUC [SameState NG1 #79] (Eterna round: R96, puzzle: Same State NG 1)",
    "measurementLabel": "apparent KD of MS2 coat protein",
    "observedMeasurement": "77.1 nM"
  },
  {
    "sequenceChain": "GCCAACACAUGAGGAUAUGGCACCUUAUUGGUGCCAGAAGGCAUGUCUAUUGACAUGAGGAUCACCCAUGUAUUAUAGUUGGCA [Fiskers NG1ss - 14] (Eterna round: R96, puzzle: Same State NG 1)",
    "measurementLabel": "apparent KD of MS2 coat protein",
    "observedMeasurement": "75.2 nM"
  },
  {
    "sequenceChain": "GAGAGACGAUUAGGAUAUCCGGUGAUAAUGAUAGGAGAAGGAAUUGACAUGAGGAUCACCCAUGUAGGAAUAAUCCAGAGAGAG [Parity 25 - Jieux - Same State NG 1] (Eterna round: R96, puzzle: Same State NG 1)",
    "measurementLabel": "apparent KD of MS2 coat protein",
    "observedMeasurement": "51.5 nM"
  },
  {
    "sequenceChain": "GCGAAAGCGGUAGGAUAUCUAGGAUAUGGGAAGACCUAAGGUUGGAAGUCACUUCACCCAGAAGGAGAGAAGGACACCGAAAGG [pwkr ssNG2 2FMN + F9.2] (Eterna round: R96, puzzle: Same State NG 2)",
    "measurementLabel": "apparent KD of MS2 coat protein",
    "observedMeasurement": "36.6 nM"
  },
  {
    "sequenceChain": "AAAAGAAACACAGGAUAUACCGCACUUAACGCGGUAGAAGGGUGGGACAUGAGGAUCACCCAUGUGGCCUAAGCGCCAGGCCGC [Tibiorvela] (Eterna round: R96, puzzle: Same State NG 1)",
    "measurementLabel": "apparent KD of MS2 coat protein",
    "observedMeasurement": "3890 nM"
  },
  {
    "sequenceChain": "GUGGUCAGACAUGAGGAUCACCCAUGUGGAAUAAAUAAGGACUAGGAUAUUUAAUAUAGGAUAUAAAAGAAGGAGUGGUUGGUG (Eterna round: R96, puzzle: Same State NG 3)",
    "measurementLabel": "apparent KD of MS2 coat protein",
    "observedMeasurement": "85.1 nM"
  }
]
